# experiment.notes: Pharmacokinetic study in rats
# Type: in vivo, male Sprague-Dawley (SD) rats
# run.conditions: male, Sprague-Dawley, plasma, iv; Rat, i.v, 5 mg/kg; read-out: t1/2 (converted)
reported.endpoint: half-life
Please answer using a numeric value trailed by its unit.

Which measured half-life value corresponds to CCc1c(C)nn2c(N)c(C#N)c(NCCc3ccn(C4COCC4CO)n3)nc12 (single isomer, unassigned; (-)) [Example 122b] ? 18 min

====

For each record, write down the corresponding Vd.
# experiment.notes: Pharmacokinetic study in dogs
# Assay type: in vivo, male Beagle dogs
# run.conditions: male, Beagle, plasma, iv; Dog, i.v, 3 mg/kg; read-out: Vss
Numbers only, in L/kg.

Which measured Vd value corresponds to "Cc1cccc(CCNc2nc3c(C)c(C)nn3c(N)c2C#N)n1" ? 1.75

// next entry
Which measured Vd value corresponds to "CCc1c(C)nn2c(N)c(C#N)c(NCCc3ccn(C4(CO)CC4)n3)nc12" ? 2

====

For each record, write down the corresponding Tmax.
# experiment.notes: Pharmacokinetic study in mice
# Type: in vivo, CD1 mice
# run.conditions: CD1, mouse, plasma, po, 30 mg/kg, p.o, 30 mg/kg, read-out: Tmax (head Tma)
Give bare numbers, in min.

Which measured Tmax value corresponds to CCc1c(C)nn2c(N)c(C#N)c(NCCc3ccn(C4(CO)CC4)n3)nc12 [Example 39] ? 12

// next entry
Which measured Tmax value corresponds to Cc1cccc(CCNc2nc3c(C)c(C)nn3c(N)c2C#N)n1 [Example 13] ? 12

====

# target.system: A2A receptor (Homo sapiens, UniProt P29274)
# Construct: host or cells: HEK-293
# Sequence (P29274 whole entry): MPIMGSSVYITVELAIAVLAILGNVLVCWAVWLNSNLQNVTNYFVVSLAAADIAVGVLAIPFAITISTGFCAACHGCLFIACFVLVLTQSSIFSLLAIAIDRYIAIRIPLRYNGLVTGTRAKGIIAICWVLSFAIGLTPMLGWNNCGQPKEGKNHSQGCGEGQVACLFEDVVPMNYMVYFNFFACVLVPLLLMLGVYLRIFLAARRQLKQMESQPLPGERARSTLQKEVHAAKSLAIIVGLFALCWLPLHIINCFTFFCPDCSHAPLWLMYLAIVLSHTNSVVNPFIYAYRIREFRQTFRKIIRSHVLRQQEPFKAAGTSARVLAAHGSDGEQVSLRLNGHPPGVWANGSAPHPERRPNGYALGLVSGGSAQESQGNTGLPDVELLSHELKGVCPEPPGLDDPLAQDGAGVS
# experiment.notes: A2aR antagonism IC50, cAMP TR-FRET (Lance Ultra) in HEK-293 cells, NECA as agonist;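 further: compounds tested from 10 µM down to 0.08 nM in buffer with Rolipram at room temperature, TR-FRET cAMP signal read 1 h after adding Eu-cAMP tracer and ULight anti-cAMP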
# Type: cell-based
# run.conditions: A2AR IC50 (nM) (@5 nM NECA), HEK-293 cells expressing A2A receptor; agonist NECA 5 nM (EC90); inhibition of cAMP
For each record, write down the corresponding log10(IC50).
A value of 2 here means IC50 of 100 in nM, since values are log10.

Completed entries (count: 3):
For the record "CCc1c(C)nn2c(N)c(C#N)c(NCCc3ccc(OC)cn3)nc12" , what value of log10(IC50) is listed for A2A receptor (Homo sapiens, UniProt P29274)? 0.32

For the record "Cc1nn2c(N)c(C#N)c(NCCc3cccc(CO)n3)nc2c1C" , what value of log10(IC50) is listed for A2A receptor (Homo sapiens, UniProt P29274)? 0.11

For the record "Cc1nn2c(N)c(C#N)c(NCCc3ccn(C4(CO)CC4)n3)nc2c1C" , what value of log10(IC50) is listed for A2A receptor (Homo sapiens, UniProt P29274)? -0.13

Give log10(IC50) for each listed item.
1. Cc1nn2c(N)c(C#N)c(NCCc3cccc(CO)n3)nc2c1Cl
2. CCc1c(C)nn2c(N)c(C#N)c(NCCc3nn(C(C)(C)CO)cc3F)nc12
3. CCc1c(C)nn2c(N)c(C#N)c(NCCc3cccc(C(C)(C)CO)n3)nc12
4. CCc1nn2c(N)c(C#N)c(NCCc3cccc(C)n3)nc2c1C
5. CCc1c(C)nn2c(N)c(C#N)c(NCCc3ccn(C4CCC4CO)n3)nc12 (racemic) [Example 77]

1. -0.42
2. 0.70
3. -0.27
4. -0.06
5. -1.00

Give log10(IC50) for each listed item.
1. CCc1c(C)nn2c(N)c(C#N)c(NCCc3ccn(CCO)n3)nc12
2. CCc1c(C(F)F)nn2c(N)c(C#N)c(NCCc3ccn(C4(CO)CC4)n3)nc12
3. Cc1cccc(CC(C)Nc2nc3c(C)c(C)nn3c(N)c2C#N)n1 (single isomer, unassigned)
4. CCc1c(C)nn2c(N)c(C#N)c(NCCc3cccc(C4(CO)CC4)n3)nc12
5. Cc1cccc(CCNc2nc3c(CC4CC4)c(C)nn3c(N)c2C#N)n1
6. Cc1cccc(C(C)Nc2nc3c(C)c(C)nn3c(N)c2C#N)n1 (centres unmarked)
7. CCc1c(C)nn2c(N)c(C#N)c(N[C@@H](C)c3ccccn3)nc12
8. Cc1nn2c(N)c(C#N)c(NCCc3cccc(C4(CO)CC4)n3)nc2c1C

[-0.13, -0.66, 0.00, -0.70, 0.46, 1.00, 1.40, -0.52]

Give log10(IC50) for each listed item.
1. CCc1c(C)nn2c(N)c(C#N)c(NC(C)Cc3ccccn3)nc12 (single isomer, unassigned) [Example 22]
2. Cc1ccc(CCNc2nc3c(C)c(C)nn3c(N)c2C#N)nc1
3. Cc1nn2c(N)c(C#N)c(NCCc3ccn(C4CCC4CO)n3)nc2c1Cl (centres unmarked)
4. Cc1nn2c(N)c(C#N)c(NCCc3ccn(C4CCC4CN)n3)nc2c1Cl (centres unmarked)
5. Cc1nn2c(N)c(C#N)c(NCCc3ccn(CCO)n3)nc2c1Cl
6. Cc1nn2c(N)c(C#N)c(NCCc3cccc(C4CC4CO)n3)nc2c1Cl (centres unmarked)
7. COc1cccc(CCNc2nc3c(C)c(C)nn3c(N)c2C#N)n1
8. CCc1c(C)nn2c(N)c(C#N)c(NCCc3ccc(C)cn3)nc12

0.40
0.36
-1.00
0.08
-0.04
-1.00
-0.05
0.74

Give log10(IC50) for each listed item.
1. Cc1nn2c(N)c(C#N)c(NCCc3ccn(C4(CO)CC4)n3)nc2c1Cl
2. Cc1ccc(F)c(CCNc2nc3c(C)c(C)nn3c(N)c2C#N)n1
3. CCc1nn2c(N)c(C#N)c(NCCc3cccc(C(C)(C)O)n3)nc2c1C
4. CCc1c(C)nn2c(N)c(C#N)c(NCCc3ccn(C(C)(C)CO)n3)nc12
5. CCc1c(C)nn2c(N)c(C#N)c(NCCc3cccc(C)n3)nc12
6. Cc1nn2c(N)c(C#N)c(NCCc3cccc(CO)n3)nc2c1CC1CC1

1: -0.92; 2: -0.06; 3: 0.36; 4: -0.30; 5: -0.82; 6: 0.28

Give log10(IC50) for each listed item.
1. Cc1nn2c(N)c(C#N)c(NCCc3ccn(C(C)(C)CO)n3)nc2c1Cl
2. CCc1c(C)nn2c(N)c(C#N)c(NCCc3cccc(C(C)(C)O)n3)nc12

1. -0.10
2. -0.70

For the record CCc1c(C)nn2c(N)c(C#N)c(NC(C)Cc3ccccn3)nc12 (single isomer, unassigned) [Example 23] , what value of log10(IC50) is listed for A2A receptor (Homo sapiens, UniProt P29274)? 1.04
